# test.method.notes: Body weight change and side effects during 14 days of oral treatment in nude mice
# Type: in vivo, BALB/c nu/nu mice
# condition.description: day 5, 20 mg/kg oral once a day
Measured Body weight change, listed per entry.
Express it in %; write the number only.

Illustrative cases are given below, each with its answer.
compound	Body weight change, %
CN1CCN(C(=O)COc2ccc(C34CC5CC(CC(C5)C3)C4)cc2)CC1 [Compound I-3]	104.7
C[N+](C)(C)CCNC(=O)CCOc1ccc(C23CC4CC(CC(C4)C2)C3)cc1.[I-] [Compound I-19]	104.7

Turning to the following compound.
Requested field: Body weight change. Item: CN1CCN(C(=O)C(C)(C)Oc2ccc(C34CC5CC(CC(C5)C3)C4)cc2)CC1 [Compound I-23] 101.0

====

Measured Tumor volume, listed per entry.
# Test system: HCT116 colon cancer cells
# test.method.notes: In vivo anti-cancer activity by oral administration, HCT116 tumor in nude mice
# Parameters: species or system BALB/c nu/nu mice
# condition.description: day 5, 20 mg/kg oral once a day
Express it in mm^3; write the number only.

Illustrative cases are given below, each with its answer.
molecular.string	unit.tag	Tumor volume
C[N+](C)(C)CCNC(=O)CCOc1ccc(C23CC4CC(CC(C4)C2)C3)cc1.[I-]	mm^3	58.8
CN1CCN(C(=O)C(C)(C)Oc2ccc(C34CC5CC(CC(C5)C3)C4)cc2)CC1	mm^3	98.0
CN(C)CCNC(=O)C(C)(C)Oc1ccc(C23CC4CC(CC(C4)C2)C3)cc1	mm^3	93.8
Cc1cc(C23CC4CC(CC(C4)C2)C3)ccc1OCC(=O)N1CCOCC1	mm^3	70.1
CN1CCN(C(=O)CCOc2ccc(C34CC5CC(CC(C5)C3)C4)cc2)CC1	mm^3	65.5
CN1CCN(C(=O)COc2ccc(C34CC5CC(CC(C5)C3)C4)cc2)CC1	mm^3	74.8

Requested field: Tumor volume. Item: `C[N+]1(C)CCN(C(=O)CCCOc2ccc(C34CC5CC(CC(C5)C3)C4)cc2)CC1.[I-]` 54.7

Requested field: Tumor volume. Item: `Cc1cc(C23CC4CC(CC(C4)C2)C3)ccc1OCC(=O)N1CC[N+](C)(C)CC1.[I-]` 66.7

====

# Tested on: HCT116 colon cancer cells
# test.method.notes: In vivo anti-cancer activity by oral administration, HCT116 tumor in nude mice
# Set-up: species or system BALB/c nu/nu mice
# condition.description: Mus musculus, HCT-116, 72 h; day 3, 20 mg/kg oral once a day; read-out: TGI (tumor growth inhibition), tumor volume
Measured inhibition in vivo at 20 mg/kg, listed per entry.
Express it in %; write the number only.

molecular.string	system.name	unit.tag	inhibition in vivo at 20 mg/kg
C[N+](C)(C)CCNC(=O)CCOc1ccc(C23CC4CC(CC(C4)C2)C3)cc1.[I-]	HCT116 colon cancer cells	%	34.1
Cc1cc(C23CC4CC(CC(C4)C2)C3)ccc1OCC(=O)N1CC[N+](C)(C)CC1.[I-]	HCT116 colon cancer cells	%	28.6
Cc1cc(C23CC4CC(CC(C4)C2)C3)ccc1OCC(=O)N1CCOCC1	HCT116 colon cancer cells	%	25

Requested field: inhibition in vivo at 20 mg/kg. Item: `CN1CCN(C(=O)CCOc2ccc(C34CC5CC(CC(C5)C3)C4)cc2)CC1` 27.6

Requested field: inhibition in vivo at 20 mg/kg. Item: `CN1CCN(C(=O)C(C)(C)Oc2ccc(C34CC5CC(CC(C5)C3)C4)cc2)CC1` 13.5

Requested field: inhibition in vivo at 20 mg/kg. Item: `CN1CCN(C(=O)COc2ccc(C34CC5CC(CC(C5)C3)C4)cc2)CC1` 33.2

Requested field: inhibition in vivo at 20 mg/kg. Item: `CN(C)CCNC(=O)C(C)(C)Oc1ccc(C23CC4CC(CC(C4)C2)C3)cc1` 19.5

Requested field: inhibition in vivo at 20 mg/kg. Item: `C[N+]1(C)CCN(C(=O)CCCOc2ccc(C34CC5CC(CC(C5)C3)C4)cc2)CC1.[I-]` 39.8

====

# Test system: HIF-1α-mediated HRE transcriptional activity
# test.method.notes: Assay for inhibition of HIF-1α-mediated transcriptional activity (HRE reporter assay)
# Assay type: cell-based, human
# condition.description: Homo sapiens, HCT-116, HCT116 cells, 12 hours under hypoxia (1% O2), read-out: Inhibitory activity against HIF-1α (10 μM)
Measured inhibition at 10 µM, listed per entry.

molecular.string	system.name	metric	result
C[N+](C)(C)CCNC(=O)CCOc1ccc(C23CC4CC(CC(C4)C2)C3)cc1.[I-]	HIF-1α-mediated HRE transcriptional activity	inhibition at 10 µM	26 to 50%

Quick check: inhibition at 10 µM on HIF-1α-mediated HRE transcriptional activity, item `CN(C)C(=O)COc1ccc(C23CC4CC(CC(C4)C2)C3)cc1` ? 51 to 75%

Quick check: inhibition at 10 µM on HIF-1α-mediated HRE transcriptional activity, item `O=C(COc1ccc(C23CC4CC(CC(C4)C2)C3)cc1)N1CCN(Cc2ccc(C(F)(F)F)cc2)CC1` ? 76 to 100%

Quick check: inhibition at 10 µM on HIF-1α-mediated HRE transcriptional activity, item `C[N+]1(C)CCN(C(=O)CCCOc2ccc(C34CC5CC(CC(C5)C3)C4)cc2)CC1.[I-]` ? 51 to 75%

Quick check: inhibition at 10 µM on HIF-1α-mediated HRE transcriptional activity, item `Cc1cc(C23CC4CC(CC(C4)C2)C3)ccc1OCC(=O)NCC[N+](C)(C)C` ? 26 to 50%

Quick check: inhibition at 10 µM on HIF-1α-mediated HRE transcriptional activity, item `C#CCN1CCN(C(=O)COc2ccc(C34CC5CC(CC(C5)C3)C4)cc2)CC1` ? 51 to 75%

Quick check: inhibition at 10 µM on HIF-1α-mediated HRE transcriptional activity, item `CN1CCN(c2ccc(NC(=O)COc3ccc(C45CC6CC(CC(C6)C4)C5)cc3)cc2)CC1` ? 1 to 25%

Quick check: inhibition at 10 µM on HIF-1α-mediated HRE transcriptional activity, item `C[N+]1(C)CCN(C(=O)COc2ccc(C34CC5CC(CC(C5)C3)C4)cc2)CC1` ? 26 to 50%

====

# Test system: HIF-1α-mediated HRE transcriptional activity
# test.method.notes: Assay for inhibition of HIF-1α-mediated transcriptional activity (HRE reporter assay)
# Assay type: cell-based, human
# condition.description: Homo sapiens, HCT-116, HCT116 cells, 12 hours under hypoxia (1% O2), read-out: Inhibitory activity against HIF-1α (10 μM)
Measured inhibition at 10 µM, listed per entry.

Illustrative cases are given below, each with its answer.
molecular.string	inhibition at 10 µM
CC(C)(C)OC(=O)N1CCN(C(=O)COc2ccc(C34CC5CC(CC(C5)C3)C4)cc2)CC1	51 to 75%
Cc1cc(C23CC4CC(CC(C4)C2)C3)ccc1OCCC(=O)N1CC[N+](C)(C)CC1	76 to 100%
CN1CCN(C(=O)CCCOc2ccc(C34CC5CC(CC(C5)C3)C4)cc2)CC1	51 to 75%
O=C(COc1ccc(C23CC4CC(CC(C4)C2)C3)cc1)NCc1ccco1	76 to 100%
Cc1cc(C23CC4CC(CC(C4)C2)C3)ccc1OCC(=O)N1CCN(C)CC1	76 to 100%

Requested field: inhibition at 10 µM. Item: `O=C(COc1ccc(C23CC4CC(CC(C4)C2)C3)cc1)NC12CC3CC(CC(O)(C3)C1)C2` 76 to 100%

Requested field: inhibition at 10 µM. Item: `Cc1cc(C23CC4CC(CC(C4)C2)C3)ccc1OCCC(=O)N1CCN(C)CC1` 76 to 100%

====

# test.method.notes: Body weight change and side effects during 14 days of oral treatment in nude mice
# Format: in vivo, BALB/c nu/nu mice
# condition.description: day 14, 20 mg/kg oral once a day
Measured Body weight change, listed per entry.
Express it in %; write the number only.

molecule	Body weight change (%)
CN1CCN(C(=O)COc2ccc(C34CC5CC(CC(C5)C3)C4)cc2)CC1 [Compound I-3]	103.7
C[N+](C)(C)CCNC(=O)CCOc1ccc(C23CC4CC(CC(C4)C2)C3)cc1.[I-] [Compound I-19]	102.2
Cc1cc(C23CC4CC(CC(C4)C2)C3)ccc1OCC(=O)N1CC[N+](C)(C)CC1.[I-] [Compound I-16]	102.3

Requested field: Body weight change. Item: CN1CCN(C(=O)C(C)(C)Oc2ccc(C34CC5CC(CC(C5)C3)C4)cc2)CC1 [Compound I-23] 102.0

====

Measured Body weight change, listed per entry.
# test.method.notes: Body weight change and side effects during 14 days of oral treatment in nude mice
# Type: in vivo, BALB/c nu/nu mice
# condition.description: day 12, 20 mg/kg oral once a day
Express it in %; write the number only.

Illustrative cases are given below, each with its answer.
molecular.string	Body weight change / %
Cc1cc(C23CC4CC(CC(C4)C2)C3)ccc1OCC(=O)N1CCOCC1	103.8
Cc1cc(C23CC4CC(CC(C4)C2)C3)ccc1OCC(=O)N1CC[N+](C)(C)CC1.[I-]	103.2
CN1CCN(C(=O)CCOc2ccc(C34CC5CC(CC(C5)C3)C4)cc2)CC1	101.9

Turning to the following compound.
Requested field: Body weight change. Item: `CN(C)CCNC(=O)C(C)(C)Oc1ccc(C23CC4CC(CC(C4)C2)C3)cc1` 104.9
